# maps each entry to its IC50
# Test system: KG-1
# protocolText: Antiproliferative activity against human KG-1 cells assessed as inhibition of cell growth incubated for 72 hrs by MTT assay
# Format: functional, cell-based
# conditionNotes: KG-1, 72 h

>  <compoundString>
CCN(CC)c1ccc(/C=C/C(=O)c2cnccn2)cc1

>  <IC50>
> 50 µM

$$$$
>  <compoundString>
O=C(/C=C/c1ccc(-c2ccccc2)cc1)c1cnccn1

>  <IC50>
> 50 µM

$$$$
>  <compoundString>
O=C(/C=C/c1ccc(F)cc1)c1cnccn1

>  <IC50>
> 50 µM

$$$$
